Below, each entry is listed with its recorded inhibition at 5 mol/L.
target: hERG channel (IKr) (Homo sapiens (Human), UniProt Q12809)
Sequence (Q12809 whole entry): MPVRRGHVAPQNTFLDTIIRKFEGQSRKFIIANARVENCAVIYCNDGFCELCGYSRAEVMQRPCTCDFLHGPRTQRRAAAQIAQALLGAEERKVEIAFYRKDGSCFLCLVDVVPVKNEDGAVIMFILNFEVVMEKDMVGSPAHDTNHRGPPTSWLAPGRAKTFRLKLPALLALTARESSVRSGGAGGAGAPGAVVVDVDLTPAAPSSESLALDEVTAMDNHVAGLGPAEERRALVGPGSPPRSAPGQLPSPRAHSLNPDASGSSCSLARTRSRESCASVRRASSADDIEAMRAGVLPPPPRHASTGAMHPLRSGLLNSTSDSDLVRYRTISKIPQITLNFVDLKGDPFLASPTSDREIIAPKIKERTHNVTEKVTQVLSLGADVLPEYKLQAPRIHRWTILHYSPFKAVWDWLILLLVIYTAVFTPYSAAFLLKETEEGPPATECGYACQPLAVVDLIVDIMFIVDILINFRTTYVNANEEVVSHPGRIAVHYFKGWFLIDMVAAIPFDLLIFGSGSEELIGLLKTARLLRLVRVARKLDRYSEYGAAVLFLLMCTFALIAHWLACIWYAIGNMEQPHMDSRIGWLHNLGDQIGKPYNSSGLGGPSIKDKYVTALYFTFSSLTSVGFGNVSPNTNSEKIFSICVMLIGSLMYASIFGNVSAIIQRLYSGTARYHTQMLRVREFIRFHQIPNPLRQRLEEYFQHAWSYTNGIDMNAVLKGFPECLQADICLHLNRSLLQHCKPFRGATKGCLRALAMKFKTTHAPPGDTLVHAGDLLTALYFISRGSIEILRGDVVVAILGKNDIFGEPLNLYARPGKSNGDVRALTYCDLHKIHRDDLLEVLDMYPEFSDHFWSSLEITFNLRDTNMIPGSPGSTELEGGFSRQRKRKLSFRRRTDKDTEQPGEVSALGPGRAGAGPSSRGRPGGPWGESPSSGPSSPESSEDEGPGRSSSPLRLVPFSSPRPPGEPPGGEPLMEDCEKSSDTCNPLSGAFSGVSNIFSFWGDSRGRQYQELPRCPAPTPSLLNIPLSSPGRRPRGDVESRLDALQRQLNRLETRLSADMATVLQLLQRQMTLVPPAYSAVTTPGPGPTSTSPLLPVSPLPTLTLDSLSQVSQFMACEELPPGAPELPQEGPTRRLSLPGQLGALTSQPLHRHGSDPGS
procedure_summary: hERG test, whole cell patch clamp IKr in CHO cells (Test Example 3)
Format: cell-based
cond: pH 7.4, at of test compound (so in the source), CHO cells expressing hERG channel, read-out: % inhibition of tail peak current (IKr)
outcome_measure: inhibition at 5 mol/L (%)

1. COCCN1C[C@@H](NC(=O)Nc2c(C)c(-c3cnn(C)c3)nn2-c2ccccc2)[C@H](c2ccccc2)O1 (racemic) [Compound I-4]
14.1
2. COCCC1C[C@@H](NC(=O)Nc2c(C)c(-c3cnn(C)c3)nn2-c2ccccc2)[C@H](c2ccccc2)O1 (stereo partly shown) [Compound I-6]
8.9
3. COCC[C@@H]1O[C@@H](NC(=O)Nc2c(C)c(-c3cnn(C)c3)nn2-c2ccccc2)[C@H](c2ccccc2)O1 [Compound I-7]
4.2
4. COCCC1C[C@@H](NC(=O)Nc2c(C)c(-c3cnc(C)nc3)nn2-c2ccccc2)[C@H](c2ccccc2)O1 (stereo partly shown) [Compound I-12]
17.6

----------
Below, each entry is listed with its recorded IC50.
target: human TrkA (Homo sapiens (Human), UniProt P04629)
Sequence (P04629 440-796): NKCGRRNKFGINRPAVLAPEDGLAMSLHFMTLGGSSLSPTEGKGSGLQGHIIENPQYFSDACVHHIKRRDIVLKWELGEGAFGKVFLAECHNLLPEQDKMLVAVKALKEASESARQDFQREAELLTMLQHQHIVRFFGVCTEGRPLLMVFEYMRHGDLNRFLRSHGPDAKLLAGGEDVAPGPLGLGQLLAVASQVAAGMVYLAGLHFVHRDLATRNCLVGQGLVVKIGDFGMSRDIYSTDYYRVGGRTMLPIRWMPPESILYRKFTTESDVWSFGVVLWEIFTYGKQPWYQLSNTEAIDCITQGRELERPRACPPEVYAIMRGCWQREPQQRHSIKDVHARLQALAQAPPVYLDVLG
procedure_summary: Human TrkA inhibition assay (Test Example 2)
Type: biochemical
cond: human TrkA 1 nmol/L, ATP 500 μmol/L, 120 min at 37° C.; read-out: IC50 values (TrkA phosphorylation inhibition)
outcome_measure: IC50

1. COCCN1C[C@@H](NC(=O)Nc2c(C)c(-c3cnc(C)nc3)nn2-c2ccccc2)[C@H](c2ccnc(F)c2)O1 (racemic) [Compound I-47]
4 nM
2. CNC(=O)c1cc(-c2nn(-c3ccccc3)c(NC(=O)N[C@@H]3CN(C)O[C@H]3c3ccc(F)c(F)c3)c2C)cn(C)c1=O (racemic) [Compound I-193]
4 nM
3. COCCN1C[C@@H](NC(=O)Nc2c(C)c(-c3ccc(-c4nn[nH]n4)nc3)nn2-c2ccccc2)[C@H](c2ccc(F)c(F)c2)O1 (racemic) [Compound I-145]
0.87 nM
4. COCCN1C[C@@H](NC(=O)Nc2c(C)c(C3=CCN(C(C)=O)CC3)nn2-c2ccccc2)[C@H](c2ccc(F)c(F)c2)O1 [Compound I-39]
0.48 nM
5. COCCN1C[C@@H](NC(=O)Nc2c(C)c(-c3cnc(OCC4CC4)nc3)nn2-c2ccccc2)[C@H](c2ccnc(F)c2)O1 (racemic) [Compound I-431]
3.1 nM
6. COCCN1C[C@@H](NC(=O)Nc2c(C)c(-c3cnc4ncn(CC(F)(F)F)c4c3)nn2-c2ccccc2)[C@H](c2ccnc(F)c2)O1 (racemic) [Compound I-241]
3.2 nM

----------
target: human TrkA (Homo sapiens (Human), UniProt P04629)
procedure_summary: Human TrkA inhibition assay (Test Example 2)
Type: biochemical
cond: human TrkA 1 nmol/L, ATP 500 μmol/L, 120 min at 37° C.; read-out: IC50 values (TrkA phosphorylation inhibition)
Experimental: Seven point five μL per well of human TrkA (PV3144, Lifetechnologies, final concentration: 1 nmol/L) suspended in the assay buffer (100 mmol/L 4-(2-hydroxyethyl)-1-piperazineethanesulfonic acid (HEPES), 10 mmol/L magnecium chloride, 0.003 vol % Brij-35, 0.004 vol % Tween20 and 1 mmol/L dithiothreitol (DTT)) was applied in a 384 well plate and the plate was pre-incubated for 15 min at room temperature with 0.4 μL of each compound (final concentration: 200 μmol/L-1 pmol/L) dissolved in DMSO. […]
pIC50: −log10 of the molar value.
Below, each entry is listed with its recorded pIC50.
outcome_measure: pIC50

1) CNC(=O)c1ncc(-c2nn(-c3ccccc3)c(NC(=O)N[C@@H]3CN(CCOC)O[C@H]3c3ccnc(F)c3)c2C)cc1C [Compound I-325]
8.60
2) COCCN1C[C@@H](NC(=O)Nc2c(C)c(-c3ccnc(C(=O)O)c3)nn2-c2ccccc2)[C@H](c2ccc(F)c(F)c2)O1 (racemic)
8.68
3) COCCN1C[C@@H](NC(=O)Nc2c(C)c(-c3ccc(N4CCN(C)CC4)nc3)nn2-c2ccccc2)[C@H](c2ccnc(F)c2)O1 (racemic)
8.17
4) COCCN1C[C@@H](NC(=O)Nc2c(C)c(-c3cnc(OC)c(CN(C)C)c3)nn2-c2ccccc2)[C@H](c2ccc(F)c(F)c2)O1
9.28
5) COCCN1C[C@@H](NC(=O)Nc2c(C)c(-c3ccnc(C(=O)NOC)c3)nn2-c2ccccc2)[C@H](c2cnc(F)c(F)c2)O1
8.82
6) COCCN1C[C@@H](NC(=O)Nc2c(C)c(-c3cnc4c(c3)c(N=S(C)(C)=O)nn4C)nn2-c2ccccc2)[C@H](c2ccc(F)c(F)c2)O1
9.22

----------
target: human TrkA (Homo sapiens (Human), UniProt P04629)
procedure_summary: Human TrkA inhibition assay (Test Example 2)
Type: biochemical
cond: Table 155, human TrkA inhibition; read-out: IC50
Below, each entry is listed with its recorded IC50.
outcome_measure: IC50

1) COCCN1C[C@@H](NC(=O)Nc2c(C)c(-c3cnc(C(C)(C)O)c(F)c3)nn2-c2ccccc2)[C@H](c2ccnc(F)c2)O1 (racemic) [Compound I-459]
< 100 nM
2) COCCN1C[C@@H](NC(=O)Nc2c(C)c(-c3cnc(OC4CCN(C)CC4)nc3)nn2-c2ccccc2)[C@H](c2cc(F)nc(F)c2)O1 (racemic) [Compound I-418]
< 100 nM
3) COCCN1C[C@@H](NC(=O)Nc2c(C)c(-c3cnc(OC4CCN(C)CC4)nc3)nn2-c2ccccc2)[C@H](c2ccc(F)c(F)c2)O1 [Compound I-464]
< 100 nM
4) COCCN1C[C@@H](NC(=O)Nc2c(C)c(-c3cnc(N4CCCC4)nc3)nn2-c2ccccc2)[C@H](c2ccnc(F)c2)O1 (racemic) [Compound I-378]
< 100 nM
5) COCCN1C[C@@H](NC(=O)Nc2c(C)c(-c3cnn(C)c3)nn2-c2cccc(F)c2)[C@H](c2ccc(F)c(F)c2)O1 [Compound I-510]
< 100 nM
6) COCCN1C[C@@H](NC(=O)Nc2c(C)c(-c3cnc(N4CCN(CC#N)CC4)nc3)nn2-c2ccccc2)[C@H](c2ccnc(F)c2)O1 (racemic) [Compound I-416]
< 100 nM
7) COCCN1C[C@@H](NC(=O)Nc2c(C)c(-c3cnc(C(=O)OC)c(CF)c3)nn2-c2ccccc2)[C@H](c2ccnc(F)c2)O1 (racemic) [Compound I-435]
< 100 nM
8) COCCN1C[C@@H](NC(=O)Nc2c(C)c(C3=CC(=O)N(C)C(C)(C)C3)nn2-c2ccccc2)[C@H](c2ccnc(F)c2)O1 (racemic) [Compound I-397]
< 100 nM
9) COCCN1C[C@@H](NC(=O)Nc2c(C)c(-c3cnc4c(c3)nc(C(=O)NC3CCN(C)CC3)n4C)nn2-c2ccccc2)[C@H](c2ccnc(F)c2)O1 (racemic) [Compound I-404]
< 100 nM
10) COCCN1C[C@@H](NC(=O)Nc2c(C)c(OCc3ccccn3)nn2-c2ccccc2)[C@H](c2ccnc(F)c2)O1 (racemic) [Compound I-454]
< 100 nM
11) COCCN1C[C@@H](NC(=O)Nc2c(C)c(-c3cnc(N4CC5(CCC5)C4)nc3)nn2-c2ccccc2)[C@H](c2ccnc(F)c2)O1 (racemic) [Compound I-485]
< 100 nM
12) COCCN1C[C@@H](NC(=O)Nc2c(C)c(-c3cc(C)c4nccn4c3)nn2-c2ccccc2)[C@H](c2ccnc(F)c2)O1 (racemic) [Compound I-348]
< 100 nM

----------
target: human TrkA (Homo sapiens (Human), UniProt P04629)
procedure_summary: Human TrkA inhibition assay (Test Example 2)
Assay type: biochemical
cond: human TrkA 1 nmol/L, ATP 500 μmol/L, 120 min at 37° C.; read-out: IC50 values (TrkA phosphorylation inhibition)
We label by threshold. Values of IC50 strictly beneath 2 nM are 1. Values of 2 nM and up are -1.

1. COCCN1C[C@@H](NC(=O)Nc2c(C)c(N3Cc4cnn(C)c4C3)nn2-c2ccccc2)[C@H](c2ccnc(F)c2)O1 (racemic)
-1
2. Cc1c(-c2cnn(C)c2)nn(-c2ccccc2)c1NC(=O)N[C@@H]1OC(C)(C)O[C@H]1c1ccccc1 (racemic)
-1
3. COCC[C@@H]1C[C@@H](NC(=O)Nc2c(C)c(-c3cnc4c(cnn4C)c3)nn2-c2ccccc2)[C@H](c2ccnc(F)c2)O1
1
4. COCCN1C[C@@H](NC(=O)Nc2c(C)c(-c3cnc4c(cnn4C)c3)nn2-c2ccccc2)[C@H](c2ccnc(F)c2)O1 (racemic) [Compound I-40]
1
5. COCCN1C[C@@H](NC(=O)Nc2c(C)c(-c3ccc4nc(C)nn4c3)nn2-c2ccccc2)[C@H](c2ccnc(F)c2)O1 (racemic)
-1

----------
Below, each entry is listed with its recorded IC50.
target: human TrkA (Homo sapiens (Human), UniProt P04629)
procedure_summary: Human TrkA inhibition assay (Test Example 2)
Assay type: biochemical
cond: Table 154, human TrkA inhibition; read-out: IC50
Protocol: Seven point five μL per well of human TrkA (PV3144, Lifetechnologies, final concentration: 1 nmol/L) suspended in the assay buffer (100 mmol/L 4-(2-hydroxyethyl)-1-piperazineethanesulfonic acid (HEPES), 10 mmol/L magnecium chloride, 0.003 vol % Brij-35, 0.004 vol % Tween20 and 1 mmol/L dithiothreitol (DTT)) was applied in a 384 well plate and the plate was pre-incubated for 15 min at room temperature with 0.4 μL of each compound (final concentration: 200 μmol/L-1 pmol/L) dissolved in DMSO. […]
outcome_measure: IC50

1) COCCN1C[C@@H](NC(=O)Nc2c(C)c(-c3cnc4c(cnn4C)c3)nn2-c2ccc(F)cc2)[C@H](c2ccnc(F)c2)O1 (racemic) [Compound I-223]
< 0.1 µM
2) COCCN1C[C@@H](NC(=O)Nc2c(C)c(-c3cnc(N4CC(O)C4)nc3)nn2-c2ccccc2)[C@H](c2ccc(F)cc2)O1 (racemic) [Compound I-265]
< 0.1 µM
3) COCCN1C[C@@H](NC(=O)Nc2c(C)c(-c3cnc4c(c3)[nH]c(=O)n4C)nn2-c2ccccc2)[C@H](c2ccc(F)c(F)c2)O1 [Compound I-218]
< 0.1 µM

Sourced from patent US10640495B2
